Where these numbers come from: patent US20230348603A1

# key: entry, value: normalized maximum binding nm shift
TARGET OR TEST SYSTEM: T1, Human VSIG4-L-Fc (human)
T1 construct: also called hVSIG4-L-Fc; hVSIG4-L
T1 sequence (chain, as listed by the source limits assumed): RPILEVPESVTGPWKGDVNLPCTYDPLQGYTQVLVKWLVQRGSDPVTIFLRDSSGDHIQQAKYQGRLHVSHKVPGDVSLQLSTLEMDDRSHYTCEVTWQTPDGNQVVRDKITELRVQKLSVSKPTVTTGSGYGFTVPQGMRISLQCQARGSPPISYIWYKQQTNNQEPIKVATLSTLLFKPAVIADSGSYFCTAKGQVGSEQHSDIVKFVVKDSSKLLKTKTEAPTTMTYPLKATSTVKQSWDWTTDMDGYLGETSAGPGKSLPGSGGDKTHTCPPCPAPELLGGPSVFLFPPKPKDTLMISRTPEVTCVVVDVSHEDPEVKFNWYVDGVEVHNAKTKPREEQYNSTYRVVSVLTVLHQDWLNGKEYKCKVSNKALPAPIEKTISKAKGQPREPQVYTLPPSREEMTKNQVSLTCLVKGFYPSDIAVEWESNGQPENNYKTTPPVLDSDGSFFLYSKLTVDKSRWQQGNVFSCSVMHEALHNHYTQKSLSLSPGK
METHOD: BLI binning on hVSIG4-L-Fc, competitor 12A12 first;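 note: normalized to binding of second antibody without first competitor antibody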
Kindly answer with a numeric value in normalized, unit omitted.

Check out these entries, answers already filled in.
14C05 mouse/human chimeric IgG4 (S228P) kappa (antibody, V domains shown) VH: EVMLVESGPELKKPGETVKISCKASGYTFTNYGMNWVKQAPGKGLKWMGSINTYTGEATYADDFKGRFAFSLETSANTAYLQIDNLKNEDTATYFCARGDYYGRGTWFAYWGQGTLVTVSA VL: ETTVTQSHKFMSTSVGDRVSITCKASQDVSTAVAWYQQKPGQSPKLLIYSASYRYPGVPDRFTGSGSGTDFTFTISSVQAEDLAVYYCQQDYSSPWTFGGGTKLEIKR ... 0.83
16E03 mouse/human chimeric IgG4 (S228P) kappa (antibody, V domains shown) VH: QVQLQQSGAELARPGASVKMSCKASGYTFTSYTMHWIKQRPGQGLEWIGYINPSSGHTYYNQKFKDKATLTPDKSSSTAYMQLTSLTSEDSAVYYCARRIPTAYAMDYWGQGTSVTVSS VL: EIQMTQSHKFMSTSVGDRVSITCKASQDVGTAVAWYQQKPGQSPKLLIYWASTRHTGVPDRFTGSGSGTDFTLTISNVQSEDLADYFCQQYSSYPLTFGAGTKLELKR ... 0.9
16E10 mouse/human chimeric IgG4 (S228P) kappa (antibody, V domains shown) VH: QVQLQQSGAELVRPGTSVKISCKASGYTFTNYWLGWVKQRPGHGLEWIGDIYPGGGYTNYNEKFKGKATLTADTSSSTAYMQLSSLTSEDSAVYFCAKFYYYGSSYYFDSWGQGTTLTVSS VL: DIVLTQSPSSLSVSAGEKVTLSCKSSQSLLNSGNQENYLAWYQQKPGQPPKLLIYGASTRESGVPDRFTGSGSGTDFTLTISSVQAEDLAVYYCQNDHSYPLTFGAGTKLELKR ... 0.25

# next binder below
# query: normalized maximum binding nm shift of entry 15A06 mouse/human chimeric IgG4 (S228P) kappa (antibody, V domains shown) VH: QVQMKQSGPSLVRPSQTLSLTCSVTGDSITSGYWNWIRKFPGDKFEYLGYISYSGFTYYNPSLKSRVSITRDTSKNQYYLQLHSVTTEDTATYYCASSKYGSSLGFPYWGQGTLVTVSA VL: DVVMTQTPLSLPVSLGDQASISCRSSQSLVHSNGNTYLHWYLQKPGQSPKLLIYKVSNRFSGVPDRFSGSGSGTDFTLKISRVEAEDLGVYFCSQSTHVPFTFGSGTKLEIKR
0.91
